- System: DU-4475
- assay-method-text: normalised viability (% of control), CellTiter-Blue; higher = more viable cells (about 100 = DMSO control)
- condition-description: incubation time: 72 h
endpoint-name: normalised viability (%)
Answers are plain numbers, in %.

Look over these answered cases.
molecule	normalised viability (%)
O=C1CCC(N2C(=O)c3ccccc3C2=O)C(=O)N1 (stereo unspecified) [Thalidomide] (300 nM)	99.6
NCC(=O)CCC(=O)O [Aminolevulinic acid] (300 nM)	91.8
CCN(CCCOc1ccc2c(Nc3cc(CC(=O)Nc4cccc(F)c4)[nH]n3)ncnc2c1)CCOP(=O)(O)O [Barasertib] (30 nM)	85.7

# batch: return normalised viability for each of the 3 molecules below
1. CC(=O)Nc1ccc(C(=O)Nc2ccccc2N)cc1 [CI-994] (30 nM)
2. C#Cc1cccc(Nc2ncnc3cc(OCCOC)c(OCCOC)cc23)c1 [Erlotinib] (300 nM)
3. Oc1nc(-c2ccc(C(F)(F)F)cc2)nc2c1CSCC2 [XAV-939] (300 nM)

85.6
114
116

I would be grateful if you could provide normalised viability for each of the following entries.
1. C[C@@H](Oc1cc(-c2cnn(C3CCNCC3)c2)cnc1N)c1c(Cl)ccc(F)c1Cl [Crizotinib] (300 nM)
2. CN(N=O)C(=O)N[C@@H](C=O)[C@@H](O)[C@H](O)[C@H](O)CO [Streptozocin] (300 nM)
3. CO[C@H]1/C=C\C=C(/C)C(=O)NC2=CC(=O)C(NCCN(C)C)=C(C[C@@H](C)C[C@H](OC)[C@H](O)[C@@H](C)/C=C(\C)[C@@H]1OC(N)=O)C2=O [Alvespimycin] (30 nM)
4. COc1cc([C@@H]2c3cc4c(cc3[C@@H](O[C@@H]3O[C@@H]5CO[C@@H](C)O[C@H]5[C@H](O)[C@H]3O)[C@H]3COC(=O)[C@H]23)OCO4)cc(OC)c1O [Etoposide] (300 nM)
5. C[C@]12CC[C@@H]3c4ccc(O)cc4C[C@@H](CCCCCCCCC[S+]([O-])CCCC(F)(F)C(F)(F)F)[C@H]3[C@@H]1CC[C@@H]2O (stereo partly specified) [Fulvestrant] (300 nM)

1. 112
2. 97.2
3. 1.87
4. 45.6
5. 92.7

----------
- Tested on: Hs578T
- assay-method-text: normalised response (% of control), CellTox Green; higher = less cell death (100 = DMSO, 0 = benzethonium chloride kill control)
- condition-description: incubation time: 72 h
endpoint-name: normalised response (%)
Numbers only, in %.

Previously resolved entries follow.
>>> print(df.to_string())
                                   compound  numeric_readout
0  O=C(O)c1ccc(-c2c[nH]c3ncc(-c4ccccc4)cc23)cc1C1CCCC1 (100 nM)             89.5
1  CN[C@@H]1C[C@H]2O[C@@](C)([C@@H]1OC)n1c3ccccc3c3c4c(c5c6ccccc6n2c5c31)C(=O)N[C@H]4O [UCN-01] (1000 nM)             47.3
2  O=C(O)c1ccc(-c2c[nH]c3ncc(-c4ccccc4)cc23)cc1C1CCCC1 (1000 nM)             92.2
3  COc1cc2nccc(Oc3ccc(NC(=O)C4(C(=O)Nc5ccc(F)cc5)CC4)cc3)c2cc1OC [Cabozantinib] (100 nM)              102
4  O=P1(NCCCl)OCCCN1CCCl (configuration not stated) [Ifosfamide] (100 nM)             56.1

Answer for every listed entry: what is its normalised response? The entries follow.
1. CC(C)Cn1cnc2c(N)nc3ccccc3c21 [Imiquimod] (250 nM)
2. N#CCNC(=O)c1ccc(-c2ccnc(Nc3ccc(N4CCOCC4)cc3)n2)cc1 [Momelotinib] (10000 nM)

1. 54.6
2. 87

----------
What normalised response was measured for each of the following?
- System: BT-549
- assay-method-text: normalised response (% of control), CellTiter-Glo; higher = more viable cells (100 = DMSO, 0 = benzethonium chloride kill control)
- condition-description: incubation time: 72 h
Numbers only, in %.

molecule	assay-system	readout-unit	numeric-readout
O=C(CCCCCCC(=O)Nc1ccc([C@H]2O[C@@H](CSc3nc(-c4ccccc4)c(-c4ccccc4)o3)C[C@@H](c3ccc(CO)cc3)O2)cc1)NO [Tubacin] (10000 nM)	BT-549	%	42
COc1cc2nccc(Oc3ccc(NC(=O)C4(C(=O)Nc5ccc(F)cc5)CC4)cc3)c2cc1OC [Cabozantinib] (1000 nM)	BT-549	%	104

I would be grateful if you could provide normalised response for each of the following entries.
1. C#Cc1cccc(Nc2ncnc3cc(OCCOC)c(OCCOC)cc23)c1 [Erlotinib] (10000 nM)
2. CC(C)Cn1cnc2c(N)nc3ccccc3c21 [Imiquimod] (2500 nM)
3. N[C@@H](CSC(c1ccccc1)(c1ccccc1)c1ccccc1)C(=O)O [S-trityl-L-cysteine] (40000 nM)

[75.4, 98, 106]

----------
Provide the recorded normalised response for the entries that follow.
- Test system: MDA-MB-453
- assay-method-text: normalised response (% of control), CellTiter-Glo; higher = more viable cells (100 = DMSO, 0 = benzethonium chloride kill control)
- condition-description: incubation time: 72 h
Numbers only, in %.

Example entries and their recorded answers appear below.
molecule	endpoint-name	readout-unit	numeric-readout
O=P1(NCCCl)OCCCN1CCCl (stereo unspecified) [Ifosfamide] (1 nM)	normalised response	%	90.3
O=C(O)c1ccc(-c2c[nH]c3ncc(-c4ccccc4)cc23)cc1C1CCCC1 (1 nM)	normalised response	%	99.3
CO[C@H]1/C=C\C=C(/C)C(=O)NC2=CC(=O)C(NCCN(C)C)=C(C[C@@H](C)C[C@H](OC)[C@H](O)[C@@H](C)/C=C(\C)[C@@H]1OC(N)=O)C2=O [Alvespimycin] (1 nM)	normalised response	%	113
C=C(c1ccc(C(=O)O)cc1)c1cc2c(cc1C)C(C)(C)CCC2(C)C [Bexarotene] (10 nM)	normalised response	%	101
Cn1c(CCCC(=O)O)nc2cc(N(CCCl)CCCl)ccc21 [Bendamustine] (1000 nM)	normalised response	%	117
CS(=O)(=O)c1ccc(C2=C(c3ccccc3)C(=O)OC2)cc1 [Rofecoxib] (1 nM)	normalised response	%	98.5
C[C@]12CC[C@@H]3c4ccc(O)cc4C[C@@H](CCCCCCCCC[S+]([O-])CCCC(F)(F)C(F)(F)F)[C@H]3[C@@H]1CC[C@@H]2O (stereo partly specified) [Fulvestrant] (100 nM)	normalised response	%	109
C#Cc1cccc(Nc2ncnc3cc(OCCOC)c(OCCOC)cc23)c1 [Erlotinib] (10 nM)	normalised response	%	107
C[C@@H](Oc1cc(-c2cnn(C3CCNCC3)c2)cnc1N)c1c(Cl)ccc(F)c1Cl [Crizotinib] (100 nM)	normalised response	%	91.7
N[C@@H](CSC(c1ccccc1)(c1ccccc1)c1ccccc1)C(=O)O [S-trityl-L-cysteine] (4000 nM)	normalised response	%	103

Now consider the entry below.
What measured normalised response goes with COc1cc2ncnc(Nc3ccc(F)c(Cl)c3)c2cc1NC(=O)/C=C/CN1CCCCC1 [Dacomitinib] (1 nM) ? 93.8

----------
- Test system: DU-4475
- assay-method-text: normalised response (% of control), CellTiter-Glo; higher = more viable cells (100 = DMSO, 0 = benzethonium chloride kill control)
- condition-description: incubation time: 72 h
endpoint-name: normalised response (%)
Numbers only, in %.

Illustrative cases are given below, each with its answer.
compound	assay-system	normalised response / %
C[C@]12CC[C@@H]3c4ccc(O)cc4C[C@@H](CCCCCCCCC[S+]([O-])CCCC(F)(F)C(F)(F)F)[C@H]3[C@@H]1CC[C@@H]2O (stereo not given in full) [Fulvestrant] (1 nM)	DU-4475	102
C[C@]12CC[C@@H]3c4ccc(O)cc4C[C@@H](CCCCCCCCC[S+]([O-])CCCC(F)(F)C(F)(F)F)[C@H]3[C@@H]1CC[C@@H]2O (stereo not given in full) [Fulvestrant] (0.1 nM)	DU-4475	102
CS(=O)(=O)c1ccc(C2=C(c3ccccc3)C(=O)OC2)cc1 [Rofecoxib] (1 nM)	DU-4475	106
CN[C@@H]1C[C@H]2O[C@@](C)([C@@H]1OC)n1c3ccccc3c3c4c(c5c6ccccc6n2c5c31)C(=O)N[C@H]4O [UCN-01] (1000 nM)	DU-4475	7.33
COc1cc2nccc(Oc3ccc(NC(=O)C4(C(=O)Nc5ccc(F)cc5)CC4)cc3)c2cc1OC [Cabozantinib] (0.1 nM)	DU-4475	95.2
Cn1c(CCCC(=O)O)nc2cc(N(CCCl)CCCl)ccc21 [Bendamustine] (1 nM)	DU-4475	108
Cc1ccc(-n2nc(C(C)(C)C)cc2NC(=O)Nc2ccc(OCCN3CCOCC3)c3ccccc23)cc1 [Doramapimod] (10 nM)	DU-4475	98.3
N.N.[Cl][Pt][Cl] [Cisplatin] (1 nM)	DU-4475	94.2
CCC1(c2ccc(N)cc2)CCC(=O)NC1=O (stereo not given) [Aminoglutethimide] (1 nM)	DU-4475	99.1
NC(=O)Nc1cc(-c2cccc(F)c2)sc1C(=O)N[C@H]1CCCNC1 [AZD7762] (100 nM)	DU-4475	98.4

Okay, here is my list. What is normalised response for each of these?
1. Cc1ccc(C(=O)N(CCCN)[C@@H](c2oc3cc(Cl)ccc3c(=O)c2Cc2ccccc2)C(C)C)cc1 (0.1 nM)
2. O=C1CCC(N2C(=O)c3ccccc3C2=O)C(=O)N1 (stereo not given) [Thalidomide] (1000 nM)
3. O=P1(NCCCl)OCCCN1CCCl (stereo not given) [Ifosfamide] (10 nM)
4. C[C@]12CC[C@@H]3c4ccc(O)cc4C[C@@H](CCCCCCCCC[S+]([O-])CCCC(F)(F)C(F)(F)F)[C@H]3[C@@H]1CC[C@@H]2O (stereo not given in full) [Fulvestrant] (100 nM)
5. CC1(C)NC(=O)N(c2ccc([N+](=O)[O-])c(C(F)(F)F)c2)C1=O [Nilutamide] (1 nM)

[96, 100, 92.5, 104, 105]
